# Test system: SK-MEL-5
# method-notes: NCI tumour cell line growth inhibition, 48 h
The source made the active and inactive calls. Rule as the data show it: active = GI50 up to about 1.1 µM and inactive = higher.
I'd appreciate it if you could supply GI50 values for the items below.

CCn1c(=N)sc2nc3ccccc3n2c1=O: > 100 µM (inactive)
CC(=O)N1NC(c2ccccc2)=NC(=O)C1c1cc(C)c(O)c(C)c1 (centres undefined): 20.3 µM (inactive)
CC1CCN(c2nnc(Cl)cc2C(=O)c2ccccc2)CC1: 16.6 µM (inactive)
CC#C[C@]1(O)CCC2[C@@H]3CCC4=CC(=O)CCC4=C3[C@@H](c3ccc(N(C)C)cc3)C[C@@]21C (some centres undefined): 10.9 µM (inactive)
COc1cc([C@@H]2c3cc4c(cc3[C@H](OC3OC5COC(C(C)C)OC5C(O)C3O)C3COC(=O)[C@@H]32)OCO4)cc(OC)c1O (some centres undefined): 7.33 µM (inactive)

List GI50 for every entry below, keeping the order given.
1. CC(=O)C1=C(C)N2C(=NC3=C(CCc4ccccc43)C2c2cccc(Br)c2)S1 (centres undefined)
2. OC/C=C(\I)CCCOCOCc1ccccc1
3. CC(=O)Oc1cccc2c1C(=O)C(Br)(Br)CCC2

(A)
41.3 µM (inactive)
22.1 µM (inactive)
4.41 µM (inactive)

Reported GI50 for CN(C)CCCNC(=O)CCNC(=O)c1cc(NC(=O)c2cc(NC(=O)c3cc(NC(=O)CCCNC(=O)c4cc(NC(=O)c5cc(NC(=O)c6nccn6C)cn5C)cn4C)cn3C)cn2C)cn1C was > 100 µM (inactive)

====

I'd appreciate it if you could supply GI50 values for the items below.
# Test system: A498
# method-notes: NCI tumour cell line growth inhibition, 48 h
Activity calls are given as the source filed them. Rule as the data show it: active = GI50 up to about 1.1 µM and inactive = higher.

Cc1ccc2c3c1[C@@H]1O[C@@H]1c1cccc(c1-3)[C@@H]1O[C@H]21: 19.1 µM (inactive)
O=C(NNC(=S)Nc1ccc(Br)cc1)c1cc(-c2ccccc2)nc2ccccc12: 13.8 µM (inactive)
CC(C)(O)C1OCC(C2CCC3(C)C4=CCC5C(C)(C)C(O)CCC5(C)C4CCC23C)CC1O (centres undefined): 16.7 µM (inactive)

Proceeding to the next compound to report its GI50.
Reported GI50 for NC(=O)c1ccccc1[N+](=O)[O-] was > 100 µM (inactive)

====

# Test system: NCI-H23
# method-notes: NCI tumour cell line growth inhibition, 48 h
Active and inactive are the calls of the source. Cut-off read from the data, not from the text of the source: active = GI50 up to about 1.1 µM and inactive = higher.
I'd appreciate it if you could supply GI50 values for the items below.

List GI50 for every entry below, keeping the order given.
1. COc1cccc(N2C(=O)CSC2c2cccc(Oc3ccccc3)c2)c1 (stereo unspecified)
2. COC(=O)n1c(CBr)c(Br)c2ccccc21
3. CCOC(=O)C1=NN(c2ccc(Cl)cc2)C2=CC(C)=NN(C)C(=S)N21

(A)
11.5 µM (inactive)
22.7 µM (inactive)
42.1 µM (inactive)

====

# Test system: EKVX
# method-notes: NCI tumour cell line growth inhibition, 48 h
Active and inactive are the calls of the source. Cut-off read from the data, not from the text of the source: active = GI50 up to about 1.1 µM and inactive = higher.
I'd appreciate it if you could supply GI50 values for the items below.

CC#C[C@]1(O)CCC2[C@@H]3CCC4=CC(=O)CCC4=C3[C@@H](c3ccc(N(C)C)cc3)C[C@@]21C (stereo partly drawn): 13.2 µM (inactive)
O=C(OCC1OC(n2nc(Cn3nnc(-c4cccnc4)n3)n(-c3cccc4ccccc34)c2=S)C(OC(=O)c2ccccc2)C1OC(=O)c1ccccc1)c1ccccc1 (stereo not drawn): > 100 µM (inactive)
Cc1ccc(S(=O)(=O)N(CCN2C(=O)c3ccccc3C2=O)c2cc3c4c(c2)Oc2cc(N(CCN5C(=O)c6ccccc6C5=O)S(=O)(=O)c5ccc(C)cc5)cc5c2C4(C)c2c(cc(N(CCN4C(=O)c6ccccc6C4=O)S(=O)(=O)c4ccc(C)cc4)cc2O5)O3)cc1: > 100 µM (inactive)
CC(C)C(Cl)CCC(C)(Cl)C(=O)CBr (stereo not drawn): 18.2 µM (inactive)

List GI50 for every entry below, keeping the order given.
1. CC(=O)N1C(c2[nH]c3ccccc3c2Cc2ccccc2)CCN1c1ccccc1 (stereo not drawn)
2. CCCCCCCCOCC(O)CO (stereo not drawn)
3. CCOC(=O)CNC(=O)NC12CC3CC(CC(C3)C1)C2
4. C=CCN(c1cc(OC)c2[nH]cc(C)c2c1[N+](=O)[O-])S(C)(=O)=O

(A)
1: > 10 µM (inactive); 2: > 100 µM (inactive); 3: 191 µM (inactive); 4: > 100 µM (inactive)

====

I'd appreciate it if you could supply GI50 values for the items below.
# Tested on: LOX IMVI
# method-notes: NCI tumour cell line growth inhibition, 48 h
Activity calls are given as the source filed them. Rule as the data show it: active = GI50 up to about 1.1 µM and inactive = higher.

Recorded results for 3 compounds are shown here.
CSc1nc2c(c(N(C)C)n1)C=Nn1c(nc3ccccc31)S2: 76.2 µM (inactive)
COc1cc2oc(-c3ccc(O)cc3)c(OC3OC(C)C(O)C(O)C3O)c(=O)c2c(O)c1OC (stereo unspecified): 57.7 µM (inactive)
Nc1cc2ncnn2c(SCC(=O)N/N=C/C(Br)=C\c2ccccc2)n1: 16 µM (inactive)

List GI50 for every entry below, keeping the order given.
1. CC(NNC(=O)c1ccncc1)c1ccc(Cl)cc1Cl (stereo unspecified)
2. Cc1cc(C)c2c(=O)n(CC(O)CN(Cc3ccccc3)CC(O)Cn3sc4nc(C)cc(C)c4c3=O)sc2n1 (stereo unspecified)
3. CCOC(=O)C(C)(NC(=O)c1ccc(NCc2ccc3nc(NC(=O)c4ccccc4)nc(NC(=O)c4ccccc4)c3c2)cc1)C(=O)OCC
4. Oc1cccc(-c2cccc(O)n2)n1

(A)
1: 86.5 µM (inactive); 2: 19.2 µM (inactive); 3: 13.6 µM (inactive); 4: > 100 µM (inactive)

====

# Test system: MOLT-4
# method-notes: NCI tumour cell line growth inhibition, 48 h
Calls of active or inactive are those of the source. Cut-off read from the data, not from the text of the source: active = GI50 up to about 1.1 µM and inactive = higher.
In this exercise, the only acceptable responses are true = active, false = inactive

O=C(c1ccccc1)c1ccc(N2C(=O)/C(=C/Cc3ccco3)N=C2c2ccccc2)c(N2C(=O)/C(=C/Cc3ccco3)N=C2c2ccccc2)c1: false
O=C(O)CO/N=C1/C(=C2/C(=O)Nc3ccccc32)Nc2ccccc21: false
COC1OC(COCc2ccc(Cl)cc2)C(OCc2ccc(Cl)cc2)C1O (stereo not given): false
OCCCOC(c1ccccc1)(c1ccccc1)c1ccccc1: false
CC(=O)OCC1OC(Nc2ncc(-c3ccc(C)cc3)s2)C(OC(C)=O)C(OC(C)=O)C1OC(C)=O (stereo not given): false
Cn1c2ccccc2n2c3ccccc3c3nnc(N)c-3c12: false
CN(C)c1ccc(/C=C2\C[C@H]3[C@@H]4CCc5cc(OCCN6CCCC6)ccc5[C@H]4CC[C@]3(C)C2=O)cc1: false
CCCCCCC(C)OC(=O)/C=C(\CC(=O)OC(C)CCCCCC)C(=O)OC(C)CCCCCC (stereo not given): false
COc1ccc(S(=O)(=O)N(C)CC(=O)O)cc1: false
CCN(c1cccc(NC(=S)Nc2ccccc2N(CC)c2cc(-c3ccccc3)no2)c1)c1cc(-c2ccccc2)no1: false

(Q) Field: outcome | Entry: C[Si](C)(C)/C(I)=C/CO
(A) false

(Q) Field: outcome | Entry: O=C(CC(O)(c1ccccc1)c1ccc(Cl)cc1)NC(=O)c1ccccc1O (stereo not given)
(A) false

(Q) Field: outcome | Entry: O=C(CC(=O)C(F)(F)F)c1csc2ccccc12
(A) false

(Q) Field: outcome | Entry: COC(=O)c1ccccc1NC(=O)/C(=N\NC(C)(C)C)C(C#N)c1nc(-c2ccc([N+](=O)[O-])cc2)cs1 (stereo not given)
(A) false

(Q) Field: outcome | Entry: COc1cc(C2c3cc4c(cc3OC(NNC(N)=S)C2C)OCO4)cc(OC)c1OC (stereo not given)
(A) true

(Q) Field: outcome | Entry: Fc1ccc(OCc2ccc3nc(-c4ccccc4)c(Cl)nc3c2)cc1
(A) false

====

# System: U-251
# method-notes: NCI tumour cell line growth inhibition, 48 h
Active and inactive are the calls of the source. No stated cut-off is given here; in the data, active = GI50 up to about 1.1 µM and inactive = higher.
readout-label: GI50

Cc1ccc2c3c1[C@@H]1O[C@@H]1c1cccc(c1-3)[C@@H]1O[C@H]21: 11.9 µM (inactive)
Oc1nncc2[nH]c(-c3ccccc3)cc12: 52 µM (inactive)
COC(=O)C(Cc1ccccc1)/N=C/c1c(O)c(O)c(C(C)C)c2cc(C)c(-c3c(C)cc4c(C(C)C)c(O)c(O)c(/C=N/C(Cc5ccccc5)C(=O)OC)c4c3O)c(O)c12 (stereo not given): 17.3 µM (inactive)
c1ccc2c(c1)[Se]c1ccccc1[Se]2: 37.5 µM (inactive)

List GI50 for every entry below, keeping the order given.
1. Nc1nc(N)c2nn(-c3ccc(C(=O)O)cc3)nc2n1
2. N=C1OC(CN2CCN(c3ccccc3)CC2)CN1C(=O)Nc1ccccc1 (stereo not given)
3. CC(C)C(C/C=C1\CC(CO)(COC(=O)CC(C(C)C)C(C)C)OC1=O)C(C)C (stereo not given)
4. COc1ccc(/N=c2\ssc3c(=S)ssc23)cc1
5. CC(C)C1(O)C(c2ccccc2)=C(c2ccccc2)C(c2ccccc2)=C1c1ccccc1
6. CC(C)C1=C(O)C(=O)C2=C(C1=O)C(O)CC1C(C)(C)CCCC21C (stereo not given)
7. CC(=O)NC1=C(C)C(=O)c2c(nc3n2CCC3OC(=O)c2ccccc2)C1=N (stereo not given)
8. CC(C)(C)c1cc(C(O)(C(=O)O)C(=O)O)cc(C(C)(C)C)c1O

(A)
> 100 µM (inactive)
> 100 µM (inactive)
13.8 µM (inactive)
28.4 µM (inactive)
5.11 µM (inactive)
4.8 µM (inactive)
3.22 µM (inactive)
> 100 µM (inactive)

List GI50 for every entry below, keeping the order given.
1. CC1(C)CN=C(Nc2ccc(F)cc2)S1
2. CCN(CC)CCC1(C(=O)OC)SCCc2ccc(C)cc21 (stereo not given)

(A)
> 100 µM (inactive)
> 100 µM (inactive)

List GI50 for every entry below, keeping the order given.
1. Cc1cc(C)c2c(=O)n(CC(O)CN(Cc3ccccc3)CC(O)Cn3sc4nc(C)cc(C)c4c3=O)sc2n1 (stereo not given)
2. CC(C)=CC(=O)C1c2cccc(O)c2C(=O)c2c(O)cc(C)cc21 (stereo not given)
3. COc1cc2cnc3c4cc(OC)c(OC(C)C)cc4ccc3c2cc1OC
4. Cn1c(=O)n2n(c1=O)C1C(=CC2)C2C=CC1n1c(=O)n(C)c(=O)n12 (stereo not given)
5. O=C(CC(=O)C(F)(F)F)c1csc2ccccc12
6. CCOC(=O)/C=C/c1c[nH]c(C(=O)OCC)c1

(A)
["16.9 µM (inactive)", "1.73 µM (inactive)", "> 100 µM (inactive)", "> 100 µM (inactive)", "34.7 µM (inactive)", "> 100 µM (inactive)"]

List GI50 for every entry below, keeping the order given.
1. COc1ccc(C(=O)Sc2c(-c3ccccc3)c(=O)n(-c3ccccc3)c(=S)n2-c2ccccc2)cc1
2. CC(C)(C)OC(=O)NCC(CNC(=O)OC(C)(C)C)C(N)=O
3. CC12C3CC4C5CC(C(C53)[C@@H]1NCc1ccccc1)C42 (stereo not given in full)
4. C=CC1(c2ccccc2Cl)N/C(=C/OCC)CO1 (stereo not given)
5. CCCCN(CC)C(=O)C1=C(C)NC(C)=C(C(=O)N(CC)CCCC)C1
6. CCOC1OC(CO)C(O)CC1n1ccc(=O)[nH]c1=O (stereo not given)

(A)
1. 47 µM (inactive)
2. > 100 µM (inactive)
3. 97.5 µM (inactive)
4. > 100 µM (inactive)
5. > 100 µM (inactive)
6. > 100 µM (inactive)
